Biological target: Rho-kinase (ROCK1) (Homo sapiens, UniProt Q13464)
Sequence (Q13464 whole entry, species assumed): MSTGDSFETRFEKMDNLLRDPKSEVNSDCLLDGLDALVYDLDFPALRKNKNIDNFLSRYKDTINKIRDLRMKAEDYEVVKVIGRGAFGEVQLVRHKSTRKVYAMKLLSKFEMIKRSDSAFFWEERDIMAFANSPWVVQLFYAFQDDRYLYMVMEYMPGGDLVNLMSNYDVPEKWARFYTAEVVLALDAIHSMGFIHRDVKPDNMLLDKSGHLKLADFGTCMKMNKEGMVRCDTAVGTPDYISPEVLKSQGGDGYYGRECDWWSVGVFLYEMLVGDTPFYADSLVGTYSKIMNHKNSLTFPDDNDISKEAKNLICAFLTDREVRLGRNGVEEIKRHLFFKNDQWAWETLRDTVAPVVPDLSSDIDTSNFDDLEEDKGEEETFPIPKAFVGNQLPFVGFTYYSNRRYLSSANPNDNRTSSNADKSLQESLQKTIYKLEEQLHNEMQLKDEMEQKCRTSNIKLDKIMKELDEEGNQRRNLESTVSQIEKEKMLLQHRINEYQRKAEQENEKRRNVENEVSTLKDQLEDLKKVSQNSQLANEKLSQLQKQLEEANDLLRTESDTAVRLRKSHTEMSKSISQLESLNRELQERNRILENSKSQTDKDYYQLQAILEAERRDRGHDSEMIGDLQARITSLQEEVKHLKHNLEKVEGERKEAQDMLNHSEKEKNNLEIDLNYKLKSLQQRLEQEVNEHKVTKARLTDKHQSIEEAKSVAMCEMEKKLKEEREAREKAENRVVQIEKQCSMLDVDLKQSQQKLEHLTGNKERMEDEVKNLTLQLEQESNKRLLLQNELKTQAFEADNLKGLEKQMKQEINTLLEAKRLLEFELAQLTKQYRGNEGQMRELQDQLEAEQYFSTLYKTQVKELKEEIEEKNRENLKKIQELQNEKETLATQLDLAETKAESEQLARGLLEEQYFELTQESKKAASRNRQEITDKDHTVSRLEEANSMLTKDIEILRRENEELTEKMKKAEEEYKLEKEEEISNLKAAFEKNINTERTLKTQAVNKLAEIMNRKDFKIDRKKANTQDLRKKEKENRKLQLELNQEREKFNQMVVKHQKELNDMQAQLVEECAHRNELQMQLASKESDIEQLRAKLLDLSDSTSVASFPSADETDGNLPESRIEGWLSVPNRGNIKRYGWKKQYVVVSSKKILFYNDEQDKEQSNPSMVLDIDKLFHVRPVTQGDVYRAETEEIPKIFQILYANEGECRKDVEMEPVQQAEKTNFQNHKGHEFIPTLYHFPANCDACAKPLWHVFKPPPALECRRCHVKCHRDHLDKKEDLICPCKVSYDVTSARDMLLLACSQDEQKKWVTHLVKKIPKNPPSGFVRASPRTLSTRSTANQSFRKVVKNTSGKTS
Test: Rho-kinase (ROCK1) inhibition
Format: biochemical
Settings: Table 2; first number of the cell, concentration not given
Provide the recorded % Inhibition for the entries that follow.
Dear colleague, please return just the value in %, with no unit written.

[in] Reported % Inhibition, compound "O=C1CN(Cc2ccccc2)C(=O)[C@H](Cc2ccccc2)N1" : ____
[out] 61

[in] Same question, "CSCC[C@@H]1NC(=O)CN(Cc2ccccc2)C1=O" this time
[out] 78

[in] And the next one, "O=C1CN(Cc2ccncc2)C(=O)[C@H](CO)N1" ?
[out] 45

[in] Repeat for the following compound: "CSCC[C@H]1CN(Cc2ccccc2)CCN1"
[out] 60

[in] Same again, this time with "CSCC[C@@H]1NC(=O)CN(Cc2ccncc2)C1=O"
[out] 25

[in] What would you report for "CSCC[C@@H]1NC(=O)CN(Cc2cccc3ccccc23)C1=O" ?
[out] 93

[in] Now consider "OC[C@H]1CN(Cc2ccncc2)CCN1" and answer again.
[out] 20

[in] Would you kindly repeat that for "c1ccc(C[C@H]2CN(Cc3cccc4ccccc34)CCN2)cc1" ?
[out] 75

Origin of measurements: patent US8993760B2
